Molecular target: TMEM16B (Mus musculus)
Sequence (Q8CFW1 1-1002): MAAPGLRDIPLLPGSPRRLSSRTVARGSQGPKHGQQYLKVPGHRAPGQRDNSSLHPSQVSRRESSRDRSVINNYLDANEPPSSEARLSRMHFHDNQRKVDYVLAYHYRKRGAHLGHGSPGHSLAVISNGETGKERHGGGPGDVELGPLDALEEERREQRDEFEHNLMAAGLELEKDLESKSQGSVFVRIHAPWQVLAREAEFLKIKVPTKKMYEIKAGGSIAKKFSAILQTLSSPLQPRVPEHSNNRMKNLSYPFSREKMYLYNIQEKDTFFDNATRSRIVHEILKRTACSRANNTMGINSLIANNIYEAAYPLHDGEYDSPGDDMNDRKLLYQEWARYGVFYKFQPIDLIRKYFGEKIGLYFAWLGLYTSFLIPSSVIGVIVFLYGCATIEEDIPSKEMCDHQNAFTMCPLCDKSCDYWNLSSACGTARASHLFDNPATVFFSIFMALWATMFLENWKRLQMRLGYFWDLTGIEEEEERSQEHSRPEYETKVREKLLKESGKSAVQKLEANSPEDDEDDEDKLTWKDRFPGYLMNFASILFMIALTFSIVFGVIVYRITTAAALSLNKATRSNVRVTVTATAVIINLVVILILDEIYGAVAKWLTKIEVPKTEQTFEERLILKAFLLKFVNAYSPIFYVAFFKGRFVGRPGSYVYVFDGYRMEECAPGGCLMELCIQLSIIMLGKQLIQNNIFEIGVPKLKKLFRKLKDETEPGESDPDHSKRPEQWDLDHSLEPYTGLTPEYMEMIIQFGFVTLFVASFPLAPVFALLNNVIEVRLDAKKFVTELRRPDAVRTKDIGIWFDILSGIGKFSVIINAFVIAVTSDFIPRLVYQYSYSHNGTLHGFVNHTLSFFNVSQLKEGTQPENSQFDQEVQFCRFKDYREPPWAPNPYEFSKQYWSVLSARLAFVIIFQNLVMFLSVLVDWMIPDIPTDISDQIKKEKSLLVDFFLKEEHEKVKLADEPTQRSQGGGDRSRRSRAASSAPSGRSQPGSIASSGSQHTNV
Experiment: whole-cell patch clamp of transfected HEK293 cells
pEC50: −log10 of the molar value.
Experimental readout: pEC50

>>> df
                                test_smiles  experimental_readout  endpoint_value
0  O=C(NC1(c2ccccc2)CC1)c1c(CN2CCC(N3CCCCC3)CC2)c(-c2cccc(C(F)(F)F)c2)nc2cc(Br)ccc12                 pEC50            7.62
